meta.source: patent US20130281397A1

Counter-ions that a name gives are not always drawn.
Known melting point of a selection of compounds

Answered cases to consult:
COc1cc(OC)c2c(=O)[nH]c(-c3cc(C(C)(C)C)c(O)c(C(C)(C)C)c3)nc2c1 [Example 23]; 229.7 to 230.5 °C
COc1cc2cc(-c3cc(C)c(O)c(C)c3)n(C)c(=O)c2c(OC)c1C [Example 14 (left)]; 246 to 248 °C
COCCOc1c(C)cc(-c2nc3cc(OC)cc(OC)c3c(=O)[nH]2)cc1C [Example 73]; 201 to 202 °C
COc1cc(OC)c2c(=O)[nH]c(-c3ccc(OCCO)c(Cl)c3)nc2c1 [Example 51]; 287 to 288 °C (dec.)

Would you kindly share the measured melting point for COc1cc(OC)c2c(=O)[nH]c(-c3ccc(N(CCO)CCO)cc3)nc2n1 [Example 72] ?
277 to 279 °C

Would you kindly share the measured melting point for Cc1cc(-c2cc3ccc(CN4CCOCC4)cc3c(=O)[nH]2)cc(C)c1O (as salt: hydrochloride) [Example 8] ?
281 to 283 °C

Would you kindly share the measured melting point for O=c1[nH]c(-c2ccc(O)cc2)cc2ccccc12 [Example 1, 3-(4-Hydroxyphenyl)-2H-isoquinolin-1-one] ?
239 to 241 °C

Would you kindly share the measured melting point for CN(C)c1ccc(-c2nc3ccccc3c(=O)[nH]2)c2ccccc12 [Example 35] ?
224 to 226 °C

Would you kindly share the measured melting point for COc1cc(OC)c2c(=O)[nH]c(-c3cc(C)c(OCCO)c(C)c3)cc2n1 [Example 56] ?
224.9 to 225.4 °C
